Hi there, I'd appreciate the recorded cell count for every entry that follows.
- assayComment: inhibitors of TNFa-induced NFkB p65 translocation, primary screen, imaging, HUVEC, MLSMR starter and 10KST1 sets (AID 438);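 also: compound added about 3h40 before a 20 min TNFalpha stimulation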
- runConditions: HUVEC TNFa-induced p65 nuclear translocation; measured here: nuclei count (cytotoxicity indicator), at 2.08 µM
# output: bare number, no unit

Can you share its cell count? I mean this compound: CN1CCc2c(sc3c2C(=O)NC(c2ccco2)N3)C1 (stereo unspecified) 554

Can you share its cell count? I mean this compound: COc1ccc(C(CC(=O)N2CCOCC2)C(C)C)cc1 (stereo unspecified) 486

Can you share its cell count? I mean this compound: "CCOC(=O)CSc1nnc2n(C3CCCCC3)c(=O)c3c4c(sc3n12)CCCC4" 650

Can you share its cell count? I mean this compound: "CCc1cc2c(=O)c(-c3nc4ccccc4[nH]3)coc2cc1OC(=O)N1CCOCC1" 666

Can you share its cell count? I mean this compound: "CCN(CC)c1ccc(-c2nn3c(-c4cccnc4)nnc3s2)cc1" 508

Can you share its cell count? I mean this compound: "Cc1ccc(-n2nc3cc(Cl)c(NC(=O)c4ccco4)cc3n2)cc1" 566

Can you share its cell count? I mean this compound: "CCOc1ccc(-c2nnc3sc(COc4ccccc4)nn23)cc1" 502

Can you share its cell count? I mean this compound: "Cc1nc(-c2c(-c3ccc(O)cc3O)noc2C(F)(F)F)cs1" 518

Can you share its cell count? I mean this compound: C[N+]12CCC(CC1)C(OC(=O)C(O)(c1ccccc1)c1ccccc1)C2 (stereo unspecified) 609

Can you share its cell count? I mean this compound: "CC(=O)c1cc2c(=O)c3ccccc3oc2nc1C" 564

Can you share its cell count? I mean this compound: "O=C(Nc1ccccn1)NC(C(F)(F)F)C(F)(F)F" 669

====

- assayComment: inhibitors of larval lipid processing in zebrafish, primary screen, whole organism, PED6 fluorescence, gall bladder and intestine (AID 686);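 also: larvae 5 to 7 days old with five fish per well; signal comes from phospholipase A2 cleavage of quenched PED6 carried via bile; overnight exposure to compound and PED6 before scoring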
- runConditions: Zebrafish larvae PED6 lipid processing, fluorescence scoring; screened at 20 µM (by protocol)
The source made the active and inactive calls.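 How the source made its calls: active means a full or partial loss of lipid-probe fluorescence in the fish gall bladder, intestine or both, judged by eye; inactive means no fluorescence loss, or compound toxic to the fish.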
Just give me one of these, please: 1 for active, 0 for inactive

Lab log entry: "COCc1cc(C)nc(SCC(=O)Nc2ccc(C)c(C)c2)c1C#N" — outcome as called in the assay? 0

Lab log entry: COC(=O)C1=C(C)N=C2SC(C)C(=O)N2C1c1ccc(C(=O)OC)cc1 (stereo not drawn) — outcome as called in the assay? 0

Lab log entry: "COc1ccc(-c2nnc3sc(COc4ccccc4)nn23)cc1" — outcome as called in the assay? 0

Lab log entry: "c1csc(-c2nn3c(C4CCCCC4)nnc3s2)c1" — outcome as called in the assay? 0

Lab log entry: "CCSc1nnc(N(CCC#N)CCC#N)s1" — outcome as called in the assay? 0

Lab log entry: "COC(=O)c1[nH]c2cc(OC)ccc2c1NC(=O)CN1CCC(C(N)=O)CC1" — outcome as called in the assay? 0

Lab log entry: C1CCC(C(CC2CCCCN2)C2CCCCC2)CC1 (stereo not drawn) — outcome as called in the assay? 0

Lab log entry: "COc1ccccc1-n1cnc2cc(NS(=O)(=O)c3ccccc3)ccc21" — outcome as called in the assay? 0

Lab log entry: "COc1cc(/C=C/C(=O)CC(=O)/C=C/c2ccc(O)c(OC)c2)ccc1O" — outcome as called in the assay? 0

Lab log entry: N=c1ncn(CC(O)CN2CCOCC2)c2nc(N3CCOCC3)[nH]c12 (stereo not drawn) — outcome as called in the assay? 0

Lab log entry: CC1CN(c2oc(-c3cccs3)nc2C#N)CC(C)O1 (stereo not drawn) — outcome as called in the assay? 0

Lab log entry: "COCCNc1oc(-c2ccc(Cl)cc2)nc1C#N" — outcome as called in the assay? 0

Lab log entry: "COc1ccc(/C=C(/C#N)c2cccnc2)cc1OC" — outcome as called in the assay? 0

Lab log entry: CCOc1nc(SC(C(C)=O)C(=O)Nc2ccccc2)nc(N(C)C)n1 (stereo not drawn) — outcome as called in the assay? 0

Lab log entry: "CC1(C)Cc2c(sc3c4nnnn4c4nnnn4c23)CO1" — outcome as called in the assay? 0

Lab log entry: "CCOC(=O)c1[nH]c2cc3c(cc2c1NC(=O)CN1CCC(C)CC1)OCO3" — outcome as called in the assay? 0

Lab log entry: "Cc1noc(NS(=O)(=O)c2ccc(NC(=O)COc3ccccc3)cc2)c1C" — outcome as called in the assay? 0

Lab log entry: COc1ccc(C=NCCC2(O)CC(C)N(C)CC2C)cc1 (stereo not drawn) — outcome as called in the assay? 0

Lab log entry: "CCCCC(=O)O[C@]1(C(=O)CO)CC[C@H]2[C@@H]3CCC4=CC(=O)CC[C@]4(C)[C@H]3[C@@H](O)C[C@@]21C" — outcome as called in the assay? 0

Lab log entry: "O=c1[nH]cnc2cc(-c3ccccc3)sc12" — outcome as called in the assay? 0

Lab log entry: "COc1ccc(N2CCN(c3nc4c(c(=O)[nH]c(=O)n4C)n3CCCc3ccccc3)CC2)cc1" — outcome as called in the assay? 0

Lab log entry: N#CC1=C(N)N(c2ccccc2)C(c2ccccc2)C1(C#N)C#N (stereo not drawn) — outcome as called in the assay? 0

Lab log entry: "c1ccc(-c2nnc3sc(Cc4cccs4)nn23)cc1" — outcome as called in the assay? 1
